details: human, Liver;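 also: human clinical data: severe hepatitis, meaning potentially life-threatening liver failure or clinically observed cases, the value counts how many indexed literature references report it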
Reported Hepatotoxicity (severe hepatitis) values follow for various molecules
MEASUREMENT NAME: Hepatotoxicity (severe hepatitis)

>>> print(df.to_string())
                                   molecule  readout_value
0  COc1cc(Cc2cnc(N)nc2N)cc(OC)c1OC.Cc1cc(NS(=O)(=O)c2ccc(N)cc2)no1 [CO-TRIMOXAZOLE]             11
1  COc1c(N2C[C@@H]3CCCN[C@@H]3C2)c(F)cc2c(=O)c(C(=O)O)cn(C3CC3)c12 [MOXIFLOXACIN]              0
2  CCc1c2c(nc3ccc(OC(=O)N4CCC(N5CCCCC5)CC4)cc13)-c1cc3c(c(=O)n1C2)COC(=O)[C@]3(O)CC [IRINOTECAN]              0
3  CC(C)(C(=O)O)c1ccc(C(O)CCCN2CCC(C(O)(c3ccccc3)c3ccccc3)CC2)cc1 (centres undefined) [FEXOFENADINE]              0
4           Cc1ncc(CO)c(CO)c1O [PYRIDOXINE]              0
5  CCN(CC)CCNC(=O)c1ccc(N)cc1 [PROCAINAMIDE]              0
6  Cc1ccc(C)c(OCCCC(C)(C)C(=O)O)c1 [GEMFIBROZIL]              0
7  Cc1ncc([N+](=O)[O-])n1CCO [METRONIDAZOLE]              1
8  O=C(O)COCCN1CCN(C(c2ccccc2)c2ccc(Cl)cc2)CC1 (centres undefined) [CETIRIZINE]              0

Origin of the recorded values: ChEMBL document CHEMBL3137667
